# Test system: NQO1 activation in BEAS-2B cells
# experiment: BEAS-2B cellular MTT assay of NQO1 activation, 0.3% HSA
# Format: cell-based
# experimentalConditions: Homo sapiens, BEAS+, read-out: BEAS+ EC50
valueType: EC50 (nM)
Field: numeric (nM). Do not append units.

1. O=C(O)CC1c2ccc3c(c2)CN(CC3)C(=O)c2ncc(cc2F)OCCCCCCn2nnc3c(Cl)c1ccc32 (centres unmarked): 147
2. O=C(O)CC1c2ccc3c(c2)CN(CC3)C(=O)c2ncc(cc2F)CCCCCCn2nnc3c(Cl)c1ccc32 (centres unmarked): 320
3. Cc1cc2ccc1C(=O)N1CCc3ccc(cc3C1)[C@H]([C@@H](C)C(=O)O)c1ccc3c(nnn3CCCOCCO2)c1C: 23.6
4. Cc1cc2ccc1C(=O)N1CCc3ccc(cc3C1)C(CC(=O)O)c1ccc3c(nnn3CCCCCCO2)c1C (centres unmarked): 2.9

Next compound, please.
Which value of EC50 has been reported for Cc1c2ccc3c1nnn3CCCCCCOc1ccc(c(F)c1F)C(=O)N1CCc3ccc(cc3C1)C2CC(=O)O (centres unmarked) in the records? 59.2
